The entries below are paired with their reported IC50.
- Assayed System: Tyrosyl-DNA phosphodiesterase 2 (Homo sapiens, UniProt O95551)
- Sequence (O95551 whole entry): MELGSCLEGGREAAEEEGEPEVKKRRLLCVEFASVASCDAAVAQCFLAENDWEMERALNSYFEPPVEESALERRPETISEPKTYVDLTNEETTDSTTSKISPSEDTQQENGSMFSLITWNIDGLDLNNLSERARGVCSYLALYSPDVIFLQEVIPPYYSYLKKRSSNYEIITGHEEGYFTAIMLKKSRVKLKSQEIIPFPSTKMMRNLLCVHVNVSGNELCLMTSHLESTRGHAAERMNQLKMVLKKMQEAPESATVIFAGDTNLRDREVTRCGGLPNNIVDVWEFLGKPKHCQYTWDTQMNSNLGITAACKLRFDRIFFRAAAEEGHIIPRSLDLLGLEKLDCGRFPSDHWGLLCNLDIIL
- Experimental Protocol: human TDP2 enzyme inhibitors, dose response, biochemical, epi absorbance, IC50 (AID 743297)
Calls of active or inactive are those of the source.

{"Structure String": "CNc1ccc2nc3ccccc3[n+](C)c2c1.[O-][Cl+3]([O-])([O-])[O-]", "Metric": "IC50", "Readout Value": "> 128 µM (inactive)"}
{"Structure String": "Cc1[nH][nH]c(=O)c1C(c1c(C)[nH][nH]c1=O)c1cn(Cc2ccccc2Cl)c2ccccc12", "Metric": "IC50", "Readout Value": "54.2 µM (inactive)"}
{"Structure String": "C[n+]1c2cc(N)ccc2cc2ccc(N)cc21", "Metric": "IC50", "Readout Value": "> 128 µM (inactive)"}

Turning now to a further record.
Output measured IC50 for this item: CC(C)=CCC1=C(OCC(=O)O)C(=O)c2ccccc2C1=O
23.6 µM (inactive)

###

Known AC50 of a selection of molecules
- Assayed System: Paired box protein Pax-8 (Homo sapiens)
- Sequence (Q06710 whole entry): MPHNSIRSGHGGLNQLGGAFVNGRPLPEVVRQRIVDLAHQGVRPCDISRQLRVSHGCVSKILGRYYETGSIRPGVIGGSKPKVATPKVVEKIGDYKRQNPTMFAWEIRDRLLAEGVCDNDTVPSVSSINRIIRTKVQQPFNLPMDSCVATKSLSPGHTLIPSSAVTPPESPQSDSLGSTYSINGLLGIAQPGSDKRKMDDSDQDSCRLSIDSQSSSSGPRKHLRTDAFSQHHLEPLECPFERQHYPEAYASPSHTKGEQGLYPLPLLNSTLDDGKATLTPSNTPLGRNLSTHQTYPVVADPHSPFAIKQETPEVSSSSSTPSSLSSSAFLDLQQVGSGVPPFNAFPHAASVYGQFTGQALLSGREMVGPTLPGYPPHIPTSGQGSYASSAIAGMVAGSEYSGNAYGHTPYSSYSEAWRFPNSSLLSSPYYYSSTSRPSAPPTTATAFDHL
- Experimental Protocol: inhibitors of PAX8-driven TPO luciferase reporter, dose response, RMG-I cells, cherry-pick (AID 687027);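 further: luciferase reporter driven by Pax8 target thyroperoxidase promoter measured by SteadyGlo luminescence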
- Assay type: functional, cell-based
Active and inactive are the calls of the source.

Worked cases, AC50 given:
{"Molecule": "CCOC(=O)Nc1ccc2c(c1)N(C(=O)CCN(CC)CC)c1ccccc1[S+]2[O-] (stereo not drawn)", "Metric": "AC50", "Readout Value": "7.06 µM (active)"}
{"Molecule": "CC(C)C(=O)N1CCN(c2ccc(NC(=O)c3ccc([N+](=O)[O-])o3)cc2Cl)CC1", "Metric": "AC50", "Readout Value": "3.25 µM (active)"}
{"Molecule": "COC(=O)[C@]12CCCCC=C1N(Cc1ccc(Cl)cc1Cl)C(=O)[C@H](CC(=O)N1CCN(C(=O)c3ccco3)CC1)C2", "Metric": "AC50", "Readout Value": "1.33 µM (active)"}
{"Molecule": "C[C@H]1CCCCO[C@H](CN(C)C(=O)Nc2ccc(C(F)(F)F)cc2)[C@@H](C)CN([C@@H](C)CO)C(=O)c2cc(NS(=O)(=O)c3cccs3)ccc2O1", "Metric": "AC50", "Readout Value": "7.75 µM (active)"}
{"Molecule": "C[C@@H]1CN([C@@H](C)CO)C(=O)c2cccc(NC(=O)c3ccncc3)c2O[C@@H]1CN(C)S(=O)(=O)c1cccs1", "Metric": "AC50", "Readout Value": "69.5 µM (active)"}

Give AC50 for COc1cc(/C=N/NC(=O)c2ccc(CN3C(=O)c4cccc5cccc3c45)cc2)cc(OC)c1O
0.286 µM (active)

Note down AC50 recorded for C=C(C)c1cccc(C(C)(C)NC(=O)N2CCN(c3ccccc3OC)CC2)c1
65.2 µM (active)

Provide only the value of recorded AC50 for O=c1cc(C(Cl)(Cl)Cl)oc2c1ccc1ccccc12
2.66 µM (active)

###

- System: BJ
- Experimental Protocol: cells
- Assay type: functional, cell-based
- Cond: Homo sapiens
Calls of active or inactive are those of the source.
Measured EC50 by item

Some entries whose results are on file:
{"Structure String": "COc1ccc2nc(-c3cccc(F)c3)cc(O)c2c1", "EC50": "1.41 µM (inconclusive)"}
{"Structure String": "Cc1cc(N2CCN(Cc3cn(C)nc3-c3cccc(Cl)c3)CC2)cc(C)n1", "EC50": "18.7 µM (active)"}
{"Structure String": "Cc1ccc(/C=N/NC(=O)c2[nH]nc3c2CCCC3)cc1", "EC50": "0.382 µM (active)"}
{"Structure String": "CC(=O)Nc1ccc(/C=N/Nc2nc3ccccc3[nH]2)cc1", "EC50": "5.82 µM (active)"}

Could you now consider this next compound?
Name the recorded EC50 of the item COc1ccc(Nc2nc(N)nc(CCl)n2)cc1 in your answer.
3.57 µM (active)

###

Consider the following molecules and their measured IC50 readings.
- Assayed System: Carboxy-terminal domain RNA polymerase II polypeptide A small phosphatase 1 (Homo sapiens, UniProt Q9GZU7)
- Sequence (Q9GZU7 whole entry, the tested form may be a part): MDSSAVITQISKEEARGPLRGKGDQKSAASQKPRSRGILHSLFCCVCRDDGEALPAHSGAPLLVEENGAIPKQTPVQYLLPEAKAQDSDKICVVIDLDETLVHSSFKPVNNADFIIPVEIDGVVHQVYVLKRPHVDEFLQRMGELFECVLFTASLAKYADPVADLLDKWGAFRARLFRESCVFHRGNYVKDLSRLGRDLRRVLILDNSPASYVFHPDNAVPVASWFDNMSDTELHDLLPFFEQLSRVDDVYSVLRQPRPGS
- Experimental Protocol: inhibitors of CTDSP1, concentration-response testing, biochemical assay, absorbance-based, actives from ultra-high-throughput screening (AID 540297)
- Type: functional
Active and inactive are the calls of the source.

Would you please look over these solved cases?
{"Molecule": "N#C/C(=C\\c1ccc(OCc2ccc(C(=O)O)cc2)cc1)C(=O)NCc1ccccc1", "IC50": "7.1 µM (active)"}
{"Molecule": "Cc1ccc(-c2cc(C(=O)N/N=C/c3ccc(Cl)cc3)[nH]n2)o1", "IC50": "9.23 µM (active)"}
{"Molecule": "O=C(Nc1ccc(Br)cc1Cl)c1cnccn1", "IC50": "4.67 µM (active)"}
{"Molecule": "O=C1Nc2ccc3sc4ccccc4c3c2C1=O", "IC50": "4.35 µM (active)"}
{"Molecule": "Cc1ccc(NC(=O)CN2C(=O)N/C(=C/c3cc(C)n(-c4cccc(C(=O)O)c4)c3C)C2=O)cc1", "IC50": "7.94 µM (active)"}
{"Molecule": "CC(=O)OC1C2CCC1C([N+]1(C)CCCCC1)CC2 (configuration not stated)", "IC50": "4.51 µM (active)"}

The record that follows has no IC50 shown yet.
Report IC50, nothing else, for this molecule: CCCCN(C(=O)Cn1ncc(Cl)c(Cl)c1=O)c1c(N)n(CC(C)C)c(=O)[nH]c1=O
5.74 µM (active)

###

- Assayed System: Cytochrome P450 3A4 (Homo sapiens);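 further: CYP3A4 tested as one member of a cytochrome P450 panel screen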
- Sequence (P08684 whole entry): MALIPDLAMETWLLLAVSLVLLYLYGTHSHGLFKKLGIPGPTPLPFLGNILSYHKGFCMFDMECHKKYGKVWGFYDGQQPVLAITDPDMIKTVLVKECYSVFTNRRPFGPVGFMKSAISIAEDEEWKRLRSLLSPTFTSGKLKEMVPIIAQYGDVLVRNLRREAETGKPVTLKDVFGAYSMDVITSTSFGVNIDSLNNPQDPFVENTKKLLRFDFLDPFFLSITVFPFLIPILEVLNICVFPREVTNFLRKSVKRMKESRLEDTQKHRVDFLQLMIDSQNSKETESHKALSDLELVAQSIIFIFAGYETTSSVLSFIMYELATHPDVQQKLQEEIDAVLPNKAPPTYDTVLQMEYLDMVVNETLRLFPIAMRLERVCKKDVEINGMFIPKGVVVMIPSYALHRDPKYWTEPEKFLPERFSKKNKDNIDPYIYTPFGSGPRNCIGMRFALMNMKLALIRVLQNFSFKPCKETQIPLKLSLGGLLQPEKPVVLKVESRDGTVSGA
Metric: AC50

Consider the worked cases shown below.
{"Structure String": "CCN1C(=O)/C(=C2\\SC(=S)N(CCCOC)C2=O)c2ccccc21", "Readout Value": "3.55 µM (inconclusive)"}
{"Structure String": "Cc1ccccc1OCCNC=C1C(=O)N(C)C(=O)N(C)C1=O", "Readout Value": "20 µM (inconclusive)"}
{"Structure String": "C#CCSc1nnc(-c2sc3ccccc3c2Cl)o1", "Readout Value": "8.91 µM (inconclusive)"}

# evaluate next
Please report the measured AC50 for COc1ccc(-c2cc(C(F)(F)F)nc(SCc3cccc(C(=O)O)c3)n2)cc1
14.1 µM (inconclusive)

###

The entries below are paired with their reported AC50.
- Assayed System: Paired box protein Pax-8 (Homo sapiens)
- Experimental Protocol: inhibitors of PAX8-driven TPO luciferase reporter, dose response, RMG-I cells, cherry-pick (AID 687027);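 further: luciferase reporter driven by Pax8 target thyroperoxidase promoter measured by SteadyGlo luminescence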
- Format: functional, cell-based
The source made the active and inactive calls.

Look up and report measured AC50 for this entry: O=S(=O)(c1ccc(F)cc1)N1C[C@H]2[C@@H](c3ccccc31)[C@H](CO)N2Cc1ccccc1Cl
11 µM (active)

For the compound C[C@H](O)[C@@H]1CN2CCc3c([nH]c4ccc(-c5ccc6c(c5)OCO6)cc34)[C@@H]2C[C@@H]1N(C)C(=O)NC1CCCCC1 , give its reported AC50.
5.9 µM (active)

For the compound CC(C1CC1)N(Cc1ccccc1)C(S)=Nc1cccc(C(F)(F)F)c1 (centres undefined) , report AC50.
33.2 µM (active)

Give the reported value of AC50 for this record: O=c1[nH]c2ccccc2n1C1CCN(C(c2ccccc2OC(F)(F)F)c2nnnn2-c2ccc3c(c2)OCCO3)CC1 (centres undefined)
4.52 µM (active)

###

- Assayed System: Cytochrome P450 2C19 (Homo sapiens)
- Sequence (P33261 whole entry): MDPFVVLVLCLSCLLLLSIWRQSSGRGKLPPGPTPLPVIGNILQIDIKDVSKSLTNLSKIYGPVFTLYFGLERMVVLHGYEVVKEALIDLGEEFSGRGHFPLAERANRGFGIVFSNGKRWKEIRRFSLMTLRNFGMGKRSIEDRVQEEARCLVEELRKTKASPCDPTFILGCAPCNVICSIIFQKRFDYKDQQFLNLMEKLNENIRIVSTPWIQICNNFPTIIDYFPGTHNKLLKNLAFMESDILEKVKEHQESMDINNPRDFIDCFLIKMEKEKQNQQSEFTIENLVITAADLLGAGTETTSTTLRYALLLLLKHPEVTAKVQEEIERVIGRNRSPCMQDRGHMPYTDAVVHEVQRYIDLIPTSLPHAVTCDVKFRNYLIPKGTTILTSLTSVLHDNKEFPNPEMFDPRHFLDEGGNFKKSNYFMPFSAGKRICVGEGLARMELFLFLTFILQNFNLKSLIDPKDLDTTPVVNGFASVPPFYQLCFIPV
- Experimental Protocol: Cytochrome panel assay with activity outcomes. Panel member name: p450-cyp2c19 Compounds with AC50 equal or less than 10 uM are considered active
- Assay type: functional
- Cond: read-out: AC50
AC50 listing for selected compounds.

Consider the following illustrative entries.
{"Compound": "COC(=O)[C@@]1(Cc2ccc(F)cc2)[C@H]2c3cc(C(=O)N(C)C)n(Cc4ccc(OC)c(OC)c4)c3C[C@H]2CN1C(=O)c1ccccc1", "Assayed System": "Cytochrome P450 2C19 (Homo sapiens)", "AC50": "39.8 µM (inconclusive)"}
{"Compound": "CS(=O)(=O)N1CCC[C@@]2(CCN(Cc3nccs3)C2)C1", "Assayed System": "Cytochrome P450 2C19 (Homo sapiens)", "AC50": "39.8 µM (inconclusive)"}
{"Compound": "N=C1/C(=C\\c2ccc(SCc3ccco3)o2)C(=O)N=C2SC=NN12", "Assayed System": "Cytochrome P450 2C19 (Homo sapiens)", "AC50": "15.8 µM (inconclusive)"}
{"Compound": "O/N=C/c1ccccc1OCc1ccc(Cl)cc1", "Assayed System": "Cytochrome P450 2C19 (Homo sapiens)", "AC50": "2.82 µM (inconclusive)"}
{"Compound": "CCS(=O)(=O)c1ccc(O)c(NC(=O)Nc2ccccc2)c1", "Assayed System": "Cytochrome P450 2C19 (Homo sapiens)", "AC50": "39.8 µM (inconclusive)"}

Report AC50, nothing else, for this compound: COc1ccc(-n2c(=O)c(-c3cccc(F)c3)nc3cncnc32)cc1
31.6 µM (inconclusive)

Return AC50 for the following compound: CCOc1ccc(CC(C(N)=O)C(N)=O)cc1CN(C)C
22.4 µM (inconclusive)

Quickly give me recorded AC50 for Cc1cc(NCCO)c2ccccc2n1
39.8 µM (inconclusive)

Quick one: give measured AC50 for Cc1cccc(CN2CCN([C@@H](c3ccccc3)c3ccc(Cl)cc3)CC2)c1
2.51 µM (inconclusive)

Provide AC50 value for the following compound: CCOC(=O)CC1C(=O)NCCN1S(=O)(=O)c1ccccc1Cl (configuration not stated)
11.2 µM (inconclusive)

Provenance of the data: ChEMBL document CHEMBL1201862
